B1: Gamma-crystallin C, residues 4 to 79; numbered along this chain, P07315 (parent)
chain: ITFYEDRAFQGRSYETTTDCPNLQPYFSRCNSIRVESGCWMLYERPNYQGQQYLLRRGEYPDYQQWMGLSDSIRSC

variants of: B1; assay: abundance fitness (aPCA) (normalised: wild type 0, dead -1); higher = more abundant; growth selection in yeast, the domain comes from the species named; conditions: Homo sapiens
Output: class label from abundance fitness. Mapping: range 1 = under -0.2, range 2 = from -0.2 up to -0.02, range 3 = -0.02 and over

State the band of G11N
range 3

State the band of G11V
range 1

State the band of W40A
range 3

State the band of L23S
range 1

State the band of C76Y
range 1

State the band of E59R
range 2

State the band of F27T
range 3

State the band of Y26D
range 2

State the band of C76V
range 3

State the band of N47L
range 3

State the band of R29T
range 3

State the band of Y14H
range 2

State the band of Q51W
range 2

State the band of Y53C
range 2

State the band of N47D
range 2

State the band of N47P
range 1

State the band of Y14Q
range 1

State the band of Y14P
range 1

State the band of D71M
range 2

State the band of E36R
range 2

State the band of Y48G
range 2

State the band of C30I
range 2

State the band of N31T
range 2

State the band of S32P
range 1

State the band of F27E
range 1

State the band of N22R
range 3

State the band of S72P
range 2

State the band of G11F
range 1

State the band of Q49Y
range 3

State the band of E36A
range 3

State the band of P61G
range 2

State the band of S72M
range 3

State the band of S13A
range 2

State the band of T17C
range 3

State the band of C76E
range 1
